Target: baculovirus-expressed ALK (Homo sapiens, UniProt Q9UM73)
Construct: host or cells: baculovirus expression system
Sequence (Q9UM73 19-1620): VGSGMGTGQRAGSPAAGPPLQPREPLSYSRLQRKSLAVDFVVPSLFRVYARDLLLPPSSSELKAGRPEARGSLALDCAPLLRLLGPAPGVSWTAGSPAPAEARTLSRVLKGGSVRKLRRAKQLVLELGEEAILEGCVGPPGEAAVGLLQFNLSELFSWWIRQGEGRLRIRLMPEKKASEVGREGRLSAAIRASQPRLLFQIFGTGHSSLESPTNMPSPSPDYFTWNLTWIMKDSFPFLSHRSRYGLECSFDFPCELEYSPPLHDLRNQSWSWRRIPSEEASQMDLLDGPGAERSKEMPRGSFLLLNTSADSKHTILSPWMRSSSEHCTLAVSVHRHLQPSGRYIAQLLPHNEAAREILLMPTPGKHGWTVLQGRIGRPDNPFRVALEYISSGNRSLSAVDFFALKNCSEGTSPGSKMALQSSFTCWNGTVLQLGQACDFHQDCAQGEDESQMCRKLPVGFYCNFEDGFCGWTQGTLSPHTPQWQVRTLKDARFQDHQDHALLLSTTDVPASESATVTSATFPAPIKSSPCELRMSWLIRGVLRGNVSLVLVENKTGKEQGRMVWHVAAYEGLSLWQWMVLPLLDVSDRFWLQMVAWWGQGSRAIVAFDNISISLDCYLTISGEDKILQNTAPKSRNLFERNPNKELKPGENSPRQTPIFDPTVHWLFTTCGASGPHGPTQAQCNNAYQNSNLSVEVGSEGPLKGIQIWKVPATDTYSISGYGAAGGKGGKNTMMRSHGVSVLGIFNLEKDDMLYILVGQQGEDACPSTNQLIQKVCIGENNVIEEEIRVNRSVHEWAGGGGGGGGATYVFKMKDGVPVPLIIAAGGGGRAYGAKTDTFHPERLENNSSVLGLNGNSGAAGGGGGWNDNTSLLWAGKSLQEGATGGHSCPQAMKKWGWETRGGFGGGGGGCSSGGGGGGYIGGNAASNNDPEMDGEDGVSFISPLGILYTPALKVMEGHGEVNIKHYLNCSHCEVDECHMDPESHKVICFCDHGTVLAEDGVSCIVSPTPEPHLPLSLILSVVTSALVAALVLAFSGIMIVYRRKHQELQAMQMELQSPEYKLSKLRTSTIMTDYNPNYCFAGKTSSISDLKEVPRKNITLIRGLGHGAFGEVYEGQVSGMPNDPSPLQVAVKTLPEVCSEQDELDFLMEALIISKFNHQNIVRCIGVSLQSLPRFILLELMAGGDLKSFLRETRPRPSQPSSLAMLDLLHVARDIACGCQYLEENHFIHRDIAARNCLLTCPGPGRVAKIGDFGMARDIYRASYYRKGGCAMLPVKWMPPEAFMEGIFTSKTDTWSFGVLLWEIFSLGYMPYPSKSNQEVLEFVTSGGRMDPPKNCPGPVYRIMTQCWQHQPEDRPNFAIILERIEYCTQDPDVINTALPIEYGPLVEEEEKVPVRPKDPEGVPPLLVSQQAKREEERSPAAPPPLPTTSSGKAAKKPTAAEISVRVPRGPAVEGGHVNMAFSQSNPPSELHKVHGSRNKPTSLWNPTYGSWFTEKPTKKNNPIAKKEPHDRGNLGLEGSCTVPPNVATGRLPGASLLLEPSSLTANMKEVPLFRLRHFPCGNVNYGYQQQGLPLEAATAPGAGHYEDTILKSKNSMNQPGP
Test: ALK Kinase Assay (ELISA-type, time-resolved fluorescence)
Type: biochemical
Settings: ALK kinase inhibition, 1 μM ATP (Km level); read-out: ALK Activity
pIC50: −log10 of the molar value.
Value Kind: pIC50

So, `CCN1C(=O)CCCc2c1ccc(Nc1ncc(Cl)c(N[C@H]3[C@@H](C(N)=O)[C@@H]4C=C[C@H]3C4)n1)c2OC` ? Its pIC50 was > 7.00

Reported pIC50 for Cn1ccnc1-c1ccccc1Nc1nc(Nc2ccc3c(c2)CCC(N2CCOCC2)CC3)ncc1Cl (stereo not drawn) was > 7.00

Documented pIC50 of `COCCN1C(=O)CCCc2c1ccc(Nc1ncc(Cl)c(N[C@@H]3[C@H](C(N)=O)[C@H]4C=C[C@@H]3C4)n1)c2OC` : > 7.00

What the record says about `CCN1CCN(CC)c2cc(Nc3ncc(Cl)c(Nc4ccccc4C(=O)NC)n3)ccc2C1=O` : pIC50 is > 7.00

Kindly note the recorded pIC50 for `CN1CCNCc2cc(OCC(F)(F)F)c(Nc3ncc(Cl)c(N[C@@H]4CCCC[C@H]4NS(C)(=O)=O)n3)cc21` , which is 6.00 to 7.00

Lab book: pIC50 of CNC(=O)c1ccccc1Nc1nc(Nc2ccc3c(c2Cl)C2CCC(C3)N2)ncc1Cl (stereo not drawn) noted as > 7.00

Form: compound = `Cn1ccnc1-c1ccccc1Nc1nc(Nc2ccc3c(c2)CCC(=O)CC3)ncc1Cl` ; pIC50 = > 7.00

Looking up COc1cc(N2CCOCC2)ccc1Nc1nc(Nc2ccc3c(c2)C2CCC3CN(C(=O)C(F)(F)F)C2)ncc1Cl (stereo not drawn) , I found its pIC50 recorded as 6.00 to 7.00

Given item `CNC(=O)c1ccccc1Nc1nc(Nc2ccc3c(c2)N(C)CCN(CCOC)C3)ncc1Cl` , the value recorded as its pIC50 is > 7.00

For reference, reported pIC50 for `CNC(=O)c1ccccc1Nc1nc(Nc2ccc3c(c2)N(C)CCN(C(=O)N(C)C)C3)ncc1Cl` stands at > 7.00

The recorded pIC50 for `CCN1CCc2ccc(Nc3ncc(Cl)c(Nc4cc(Cl)ccc4C(=O)NC)n3)cc2CC1` is > 7.00

Form field pIC50, entry `COc1cc2c(cc1Nc1ncc(Cl)c(N[C@@H]3CCCC[C@H]3NS(C)(=O)=O)n1)N(C)CCN(C[C@@H](O)C(F)(F)F)C2` : > 7.00

Consider `CNC(=O)c1ccccc1Nc1nc(Nc2ccc3c(c2)N(C)CCN(S(C)(=O)=O)C3)ncc1Cl` . Its measured pIC50 is > 7.00

Reported pIC50 for `COc1cc2c(cc1Nc1ncc(Cl)c(Nc3ccc(N4CCOCC4)cc3OC)n1)CCN(CC(F)(F)F)CC2` was > 7.00

Given item `CNC(=O)c1cccc(Cl)c1Nc1nc(Nc2ccc3c(c2)CCN(CCOC)CC3)ncc1Cl` , the value recorded as its pIC50 is 6.00 to 7.00

The compound listed as `CCN1CCc2ccc(Nc3ncc(Cl)c(NCCC(=O)NC)n3)cc2CC1` shows pIC50 equal to 6.00 to 7.00

Entry under test: `CNC(=O)c1cccc(F)c1Nc1nc(Nc2ccc3c(c2)CCN(C[C@@H](O)C(F)(F)F)CC3)ncc1Cl` . Its pIC50 was > 7.00

Sure, the documented pIC50 for `CC1(C)CCCNc2ccc(Nc3ncc(Cl)c(N[C@@H]4CCCC[C@H]4NS(C)(=O)=O)n3)cc21` is > 7.00

# pIC50 of `COCCN1CCc2ccc(Nc3ncc(Cl)c(NCC(C)(C)NS(C)(=O)=O)n3)cc2CC1` = 6.00 to 7.00

Value of pIC50 reported for the compound `COc1c(Nc2ncc(Cl)c(N[C@@H]3CCCC[C@H]3NS(C)(=O)=O)n2)ccc2c1CCCC(=O)N2C` is > 7.00

# pIC50 of CNC(=O)c1ccccc1Nc1nc(Nc2ccc3c(c2)C2CCC(C3)N2CCOC)ncc1Cl (stereo not drawn) = > 7.00
